conditionLabel: 410 K; 101.33 kPa; Liquid; Small sample (50 mg) DSC
Numbers after ± are expanded uncertainties.
readout: molar entropy
Provide the measurement as a number trailed by its unit.

Consider the following illustrative entries.
molecule	molar entropy
OC[C@@H](O)C(O)[C@H](O)CO	391.63 ± 48 J/K/mol
OC[C@H](O)C(O)[C@@H](O)CO [L-(-)-arabitol]	389.35 ± 120 J/K/mol
OC[C@@H](O)[C@@H](O)CO	338.24 ± 61 J/K/mol

Reported molar entropy for OC[C@@H](O)[C@H](O)[C@@H](O)CO : what is it?
401.41 ± 37 J/K/mol

----------
experimentSummary: molar heat capacity at constant pressure
conditionLabel: 303.15 K; 101.33 kPa; Crystal; Small sample (50 mg) DSC
readout: molar heat capacity at constant pressure (J/K/mol)
Numbers only, in J/K/mol.

Field: molar heat capacity at constant pressure. Fill in for each record below.
1. OC[C@@H](O)[C@@H](O)CO [meso-1,2,3,4-butanetetrol]
2. OC[C@H](O)C(O)[C@@H](O)CO [L-(-)-arabitol]
3. OC[C@@H](O)C(O)[C@H](O)CO [D-arabitol]
4. OC[C@@H](O)[C@H](O)[C@@H](O)CO [xylitol]
5. OC[C@@H](O)[C@@H](O)[C@H](O)[C@H](O)CO [D-mannitol]
6. O[C@H]1[C@H](O)[C@@H](O)[C@H](O)[C@@H](O)[C@H]1O [cis-1,2,3,5-trans-4,6-cyclohexanehexol]

167.71
210.71
204.69
213.48
234.21
221.72

----------
Provide the recorded molar heat capacity at constant pressure for the entries that follow.
experimentSummary: molar heat capacity at constant pressure
conditionLabel: 344.15 K; 101.33 kPa; Crystal; Small sample (50 mg) DSC
One number for each entry, in J/K/mol.

Consider the following illustrative entries.
compound	readout	recordedNumber
OC[C@@H](O)[C@@H](O)[C@H](O)[C@H](O)CO [D-mannitol]	molar heat capacity at constant pressure	271.03
OC[C@@H](O)[C@@H](O)CO [meso-1,2,3,4-butanetetrol]	molar heat capacity at constant pressure	192.16
O[C@H]1[C@H](O)[C@@H](O)[C@H](O)[C@@H](O)[C@H]1O [cis-1,2,3,5-trans-4,6-cyclohexanehexol]	molar heat capacity at constant pressure	258

// switching to the query compound
Reported molar heat capacity at constant pressure for OC[C@@H](O)C(O)[C@H](O)CO [D-arabitol] : what is it?
245.91

----------
experimentSummary: molar heat capacity at constant pressure
conditionLabel: 338.15 K; 101.33 kPa; Crystal; Small sample (50 mg) DSC
Label yes (1) when molar heat capacity at constant pressure < 200 J/K/mol; otherwise no (0).

compound	className
O[C@H]1[C@H](O)[C@@H](O)[C@H](O)[C@@H](O)[C@H]1O [cis-1,2,3,5-trans-4,6-cyclohexanehexol]	no (0)
OC[C@@H](O)[C@H](O)[C@@H](O)CO	no (0)
OC[C@@H](O)C(O)[C@H](O)CO	no (0)
OC[C@@H](O)[C@@H](O)[C@H](O)[C@H](O)CO	no (0)

Kindly review the next compound as well.
Confirm or reject: molar heat capacity at constant pressure of OC[C@@H](O)[C@@H](O)CO lies strictly below 200 J/K/mol
yes (1)

----------
conditionLabel: 335 K; 101.33 kPa; Crystal; Small sample (50 mg) DSC
readout: molar entropy (J/K/mol)
Numbers only, in J/K/mol.

Consider the following illustrative entries.
compound	recordedNumber
O[C@H]1[C@H](O)[C@@H](O)[C@H](O)[C@@H](O)[C@H]1O [cis-1,2,3,5-trans-4,6-cyclohexanehexol]	225.37
OC[C@H](O)C(O)[C@@H](O)CO [L-(-)-arabitol]	227.93
OC[C@@H](O)[C@@H](O)CO [meso-1,2,3,4-butanetetrol]	185.94

Field: molar entropy. Fill in for each record below.
1. OC[C@@H](O)[C@H](O)[C@@H](O)CO [xylitol]
2. OC[C@@H](O)[C@@H](O)[C@H](O)[C@H](O)CO [D-mannitol]
3. OC[C@@H](O)C(O)[C@H](O)CO [D-arabitol]

[224.31, 255.74, 224.99]

----------
experimentSummary: molar heat capacity at constant pressure
conditionLabel: 150 K; 101.33 kPa; Crystal; relaxation calorimetry
Provide the recorded molar heat capacity at constant pressure for the entries that follow.
Give bare numbers, in J/K/mol.

Consider the following illustrative entries.
compound	molar heat capacity at constant pressure, J/K/mol
OC[C@@H](O)[C@@H](O)CO [meso-1,2,3,4-butanetetrol]	90.34
OC[C@@H](O)[C@H](O)[C@@H](O)CO [xylitol]	111.17

Field: molar heat capacity at constant pressure. Fill in for each record below.
1. OC[C@H](O)C(O)[C@@H](O)CO [L-(-)-arabitol]
2. OC[C@@H](O)[C@@H](O)[C@H](O)[C@H](O)CO [D-mannitol]
3. O[C@H]1[C@H](O)[C@@H](O)[C@H](O)[C@@H](O)[C@H]1O [cis-1,2,3,5-trans-4,6-cyclohexanehexol]
4. OC[C@@H](O)C(O)[C@H](O)CO [D-arabitol]

[111.98, 125.32, 109.64, 110.97]

----------
Provide the recorded molar heat capacity at constant pressure for the entries that follow.
experimentSummary: molar heat capacity at constant pressure
conditionLabel: 237.15 K; 101.33 kPa; Crystal; Small sample (50 mg) DSC
One number for each entry, in J/K/mol.

Consider the following illustrative entries.
compound	readout	recordedNumber
O[C@H]1[C@H](O)[C@@H](O)[C@H](O)[C@@H](O)[C@H]1O [cis-1,2,3,5-trans-4,6-cyclohexanehexol]	molar heat capacity at constant pressure	171.54
OC[C@@H](O)[C@@H](O)CO [meso-1,2,3,4-butanetetrol]	molar heat capacity at constant pressure	132.65
OC[C@@H](O)C(O)[C@H](O)CO [D-arabitol]	molar heat capacity at constant pressure	159.84

Field: molar heat capacity at constant pressure. Fill in for each record below.
1. OC[C@@H](O)[C@@H](O)[C@H](O)[C@H](O)CO [D-mannitol]
2. OC[C@@H](O)[C@H](O)[C@@H](O)CO [xylitol]
3. OC[C@H](O)C(O)[C@@H](O)CO [L-(-)-arabitol]

185.22
166.14
164.14

----------
conditionLabel: 190 K; 101.33 kPa; Crystal; relaxation calorimetry
Provide the recorded molar entropy for the entries that follow.
One number for each entry, in J/K/mol.

compound	molar entropy / J/K/mol
O[C@H]1[C@H](O)[C@@H](O)[C@H](O)[C@@H](O)[C@H]1O [cis-1,2,3,5-trans-4,6-cyclohexanehexol]	119.33
OC[C@@H](O)[C@H](O)[C@@H](O)CO	122.4
OC[C@@H](O)[C@@H](O)CO	104.44
OC[C@@H](O)[C@@H](O)[C@H](O)[C@H](O)CO	142.11
OC[C@H](O)C(O)[C@@H](O)CO [L-(-)-arabitol]	126.44

// switching to the query compound
Reported molar entropy for OC[C@@H](O)C(O)[C@H](O)CO : what is it?
125.41

----------
experimentSummary: molar heat capacity at constant pressure
conditionLabel: 279.15 K; 101.33 kPa; Crystal; Small sample (50 mg) DSC
± gives the expanded uncertainty stated by the source.
readout: molar heat capacity at constant pressure
Provide the measurement as a number trailed by its unit.

Consider the following illustrative entries.
compound	molar heat capacity at constant pressure
OC[C@H](O)C(O)[C@@H](O)CO [L-(-)-arabitol]	194.6 ± 39 J/K/mol
OC[C@@H](O)[C@@H](O)CO	154.21 ± 19 J/K/mol

Field: molar heat capacity at constant pressure. Fill in for each record below.
1. OC[C@@H](O)[C@H](O)[C@@H](O)CO
2. O[C@H]1[C@H](O)[C@@H](O)[C@H](O)[C@@H](O)[C@H]1O [cis-1,2,3,5-trans-4,6-cyclohexanehexol]
3. OC[C@@H](O)C(O)[C@H](O)CO
4. OC[C@@H](O)[C@@H](O)[C@H](O)[C@H](O)CO

1: 195.25 ± 12 J/K/mol; 2: 203.19 ± 29 J/K/mol; 3: 187.46 ± 15 J/K/mol; 4: 216.09 ± 35 J/K/mol

----------
conditionLabel: 260 K; 101.33 kPa; Crystal; relaxation calorimetry
readout: molar entropy (J/K/mol)
Give bare numbers, in J/K/mol.

Consider the following illustrative entries.
compound	quantityUnit	recordedNumber
OC[C@H](O)C(O)[C@@H](O)CO [L-(-)-arabitol]	J/K/mol	175.51
OC[C@@H](O)[C@@H](O)[C@H](O)[C@H](O)CO	J/K/mol	197.43
O[C@H]1[C@H](O)[C@@H](O)[C@H](O)[C@@H](O)[C@H]1O [cis-1,2,3,5-trans-4,6-cyclohexanehexol]	J/K/mol	170.3

Field: molar entropy. Fill in for each record below.
1. OC[C@@H](O)[C@H](O)[C@@H](O)CO
2. OC[C@@H](O)[C@@H](O)CO
3. OC[C@@H](O)C(O)[C@H](O)CO

1: 171.65; 2: 144.24; 3: 173.89

FYI, the data here is from the NIST ThermoML archive (doi:10.1016/j.jct.2017.08.004).
